The binders listed here are annotated with their EC50 of peptide.
molecular target: T1, KRAS G12D peptide on HLA-A*11:01 (human); assay: CD137 by flow cytometry; transduced primary CD4+ and CD8+ T cells, TRAC/TRBC double knockout; G12D peptide titrated (FIG. 3D); full-length, on cells
T1 peptide: VVVGADGVGK
Record the value in nM, omitting the unit from your answer.

1) TCR2 (TCR, V domains shown) Valpha: AQTVTQSQPEMSVQEAETVTLSCTYDTSENNYYLFWYKQPPSRQMILVIRQEAYKQQNATENRFSVNFQKAAKSFSLKISDSQLGDTAMYFCAFMYPSQGGSEKLVFGKGMKLTVNP Vbeta: ETGVTQSPTHLIKTRGQQVTLRCSSQSGHNTVSWYQQALGQGPQFIFQYYREEENGRGNFPPRFSGLQFPNYSSELNVNALELDDSALYLCASSSPGFRSYGYTFGSGTRLTVV    7.3
2) TCR6 (TCR, V domains shown) Valpha: GQQLNQSPQSMFIQEGEDVSMNCTSSSIFNTWLWYKQDPGEGPVLLIALYKAGELTSNGRLTAQFGITRKDSFLNISASIPSDVGIYFCAGRREGAQKLVFGQGTRLTINP Vbeta: GAGVSQSPRYKVAKRGQDVALRCDPISGHVSLFWYQQALGQGPEFLTYFQNEAQLDKSGLPSDRFFAERPEGSVSTLKIQRTQQEDSAVYLCASSSTLMGVNIQYFGAGTRLSVL    6.4
3) TCR5 (TCR, V domains shown) Valpha: GEDVEQSLFLSVREGDSSVINCTYTDSSSTYLYWYKQEPGAGLQLLTYIFSNMDMKQDQRLTVLLNKKDKHLSLRIADTQTGDSAIYFCAERDAGNNRKLIWGLGTSLAVNP Vbeta: GAGVSQSPRYKVAKRGQDVALRCDPISGHVSLFWYQQALGQGPEFLTYFQNEAQLDKSGLPSDRFFAERPEGSVSTLKIQRTQQEDSAVYLCASSLEGGDTQYFGPGTRLTVL    9.4

Lab note: next binder to report on.
For the binder TCR1 (TCR, V domains shown) Valpha: GDSVTQMEGPVTLSEEAFLTINCTYTATGYPSLFWYVQYPGEGLQLLLKATKADDKGSNKGFEATYRKETTSFHLEKGSVQVSDSAVYFCALSDRVGGARLMFGDGTQLVVKP Vbeta: EADIYQTPRYLVIGTGKKITLECSQTMGHDKMYWYQQDPGMELHLIHYSYGVNSTEKGDLSSESTVSRIRTEHFPLTLESARPSHTSQYLCASSEGLYNEQFFGPGTRLTVL , what EC50 of peptide is on record? 12.2

Entry source: patent US20260027208A1
